# procedure_text: total protein half-life in vivo (active degradation + dilution); higher = more stable protein
# reported_conditions: wild type E. coli NCM3722; growth: N-lim chemostat; doubling time 12 h
quantity_measured: total protein half-life in vivo (h)
Response body: numeric value in h, unit text excluded.

Answered cases to consult:
MYYPFVRKALFQLDPERAHEFTFQQLRRITGTPFEALVRQKVPAKPVNCMGLTFKNPLGLAAGLDKDGECIDALGAMGFGSIEIGTVTPRPQPGNDKPRLFRLVDAEGLINRMGFNNLGVDNLVENVKKAHYDGVLGINIGKNKDTPVEQGKDDYLICMEKIYAYAGYIAINISSPNTPGLRTLQYGEALDDLLTAIKNKQNDLQAMHHKYVPIAVKIAPDLSEEELIQVADSLVRHNIDGVIATNTTLDRSLVQGMKNCDQTGGLSGRPLQLKSTEIIRRLSLELNGRLPIIGVGGIDSVIAAREKIAAGASLVQIYSGFIFKGPPLIKEIVTHI [P0A7E1] = 12.5
MALLPDKEKLLRNFLRCANWEEKYLYIIELGQRLPELRDEDRSPQNSIQGCQSQVWIVMRQNAQGIIELQGDSDAAIVKGLIAVVFILYDQMTPQDIVNFDVRPWFEKMALTQHLTPSRSQGLEAMIRAIRAKAAALS = 5.75

INPUT: Can you look up the measured total protein half-life in vivo of "MLKIIRAGMYTTVQDGGRHGFRQSGISHCGALDMPALRIANLLVGNDANAPALEITLGQLTVEFETDGWFALTGAGCEARLDDNAVWTGWRLPMKAGQRLTLKRPQHGMRSYLAVAGGIDVPPVMGSCSTDLKVGIGGLEGRLLKDGDRLPIGKSKRDSMEAQGVKQLLWGNRIRALPGPEYHEFDRASQDAFWRSPWQLSSQSNRMGYRLQGQILKRTTDRELLSHGLLPGVVQVPHNGQPIVLMNDAQTTGGYPRIACIIEADMYHLAQIPLGQPIHFVQCSLEEALKARQDQQRYFEQLAWRLHNEN" for me?
OUTPUT: 8.94

INPUT: Field entry: MSEKVVFSQLSRKFIDENDATPAEAQQVVYYSLAIGHHLGVIDCLEAALTCPWDEYLAWIATLEAGSEARRKMEGVPKYGEIVIDINHVPMLANAFDKARAAQTSQQQEWSTMLLSMLHDIHQENAIYLMVRRLRD [P0AEV7]
OUTPUT: 2.34

INPUT: Field entry: "MMKTMRIAAIPGDGIGKEVLPEGIRVLQAAAERWGFALSFEQMEWASCEYYSHHGKMMPDDWHEQLSRFDAIYFGAVGWPDTVPDHISLWGSLLKFRREFDQYVNLRPVRLFPGVPCPLAGKQPGDIDFYVVRENTEGEYSSLGGRVNEGTEHEVVIQESVFTRRGVDRILRYAFELAQSRPRKTLTSATKSNGLAISMPYWDERVEAMAENYPEIRWDKQHIDILCARFVMQPERFDVVVASNLFGDILSDLGPACTGTIGIAPSANLNPERTFPSLFEPVHGSAPDIYGKNIANPIATIWAGAMMLDFLGNGDERFQQAHNGILAAIEEVIAHGPKTPDMKGNATTPQVADAICKIILR"
OUTPUT: 3.89

INPUT: Field entry: "MTKQVKIYHNPRCSKSRETLNLLKENGVEPEVVLYLETPADAATLRDLLKILGMNSARELMRQKEDLYKELNLADSSLSEEALIQAMVDNPKLMERPIVVANGKARIGRPPEQVLEIVG"
OUTPUT: 4.7
